- Tested target: Cy5-labelled Mcl1 (amino acids 171-321) C286S protein (UniProtKB Q07820) (Homo sapiens (Human), UniProt Q07820, C286S)
- Sequence (Q07820 171-321 C286S): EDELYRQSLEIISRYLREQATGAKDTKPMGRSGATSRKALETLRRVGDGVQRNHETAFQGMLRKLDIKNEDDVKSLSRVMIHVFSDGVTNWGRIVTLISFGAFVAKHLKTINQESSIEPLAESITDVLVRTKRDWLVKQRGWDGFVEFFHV
- Procedure details: Inhibition of Mcl-1 by the fluorescence quenching assay (Example A, Method B)
- Type: binding
pKi: −log10 of the molar value.
Measured quantity: pKi

Below, 4 compounds whose answers are already recorded.
• C[C@@H](COc1ccnc2c1[C@H](C)CCC2)CC1Cc2c(Cl)c(Cl)ccc2[C@]12CC[C@@](Nc1cccc(Cl)c1)(C(=O)O)CC2 (single isomer, unassigned) [Example 752] = 9.49
• COC[C@H]1C[C@@H]1c1ccc2c(c1)[C@]1(CC[C@@](Nc3cccc(Cl)c3)(C(=O)O)CC1)[C@@H](C[C@@H](C)COc1ccnc3c1[C@H](C)CCC3)C2 = 9.79
• C[C@@H](COc1ccnc2ccsc12)C[C@H]1Cc2ccc(F)cc2[C@]12CC[C@@](Nc1cccc(Cl)c1)(C(=O)O)CC2 = 8.59
• CCCC#C[C@@H](COc1ccnc2ccsc12)CC1=Cc2ccccc2[C@]12CC[C@@](Nc1cccc(Cl)c1)(C(=O)O)CC2 = 7.97

1: O=C(O)[C@]1(Nc2cccc(Cl)c2)CC[C@@]2(CC1)c1ccccc1CC2CC(CO)COc1ccnc2c1CCC2 (single isomer, unassigned) [Example 500]
2: C[C@@H](COc1ccnc2c1[C@H](C)CCC2)C[C@H]1Cc2cc3c(cc2[C@]12CC[C@@](Nc1cccc(Cl)c1)(C(=O)OCCN(C)C)CC2)OCO3
3: C[C@@H](COc1ccnc2c1[C@H](C)CCC2)C[C@H]1Cc2cc3c(cc2[C@]12CC[C@@](Nc1cccc(Cl)c1)(C(=O)OCC(F)(F)F)CC2)OCO3
Request: rank_up(items): orders items by reported pKi in ascending numerical order. Answer by listing the labels in the requested order.
Response: 3, 1, 2
(3: 6.67, 1: 7.81, 2: 8.26)

====

- Tested target: Mcl-1 protein (UniProtKB Q07820) (Homo sapiens (Human), UniProt Q07820)
- Sequence (Q07820 whole entry): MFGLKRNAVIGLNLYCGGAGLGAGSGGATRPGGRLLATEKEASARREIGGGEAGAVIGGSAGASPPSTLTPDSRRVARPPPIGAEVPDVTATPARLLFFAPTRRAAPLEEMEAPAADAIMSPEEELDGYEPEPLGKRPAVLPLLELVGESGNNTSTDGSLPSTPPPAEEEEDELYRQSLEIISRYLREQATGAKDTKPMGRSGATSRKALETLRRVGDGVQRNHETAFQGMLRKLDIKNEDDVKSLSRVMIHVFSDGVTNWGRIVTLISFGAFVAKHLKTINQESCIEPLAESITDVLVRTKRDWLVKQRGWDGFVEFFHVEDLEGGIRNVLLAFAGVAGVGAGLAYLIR
- Procedure details: Inhibition of Mcl-1 by the fluorescence polarisation assay (Example A, Method A)
- Condition label: fluorescence polarization assay
Measured quantity: Ki (nM)

* COc1cccc(C2=Cc3ccccc3[C@]23CC[C@@](Nc2cccc(Cl)c2)(C(=O)O)CC3)c1Cl [Example 267] | 259

A: COc1cc(Cl)cc(C2Cc3ccccc3[C@]23CC[C@@](Nc2cccc(Cl)c2)(C(=O)O)CC3)c1 (single isomer, unassigned) [Example 348]
B: O=C(O)[C@]1(Nc2cccc(Cl)c2)CC[C@@]2(C=Cc3ncccc32)CC1 [Example 70]
C: C[C@@H](COc1ccncc1C1CC1(C)C)C[C@H]1Cc2ccccc2[C@]12CC[C@@](Nc1cccc(Cl)c1)(C(=O)O)CC2 (some centres unmarked) [Example 580]
Request: Given 3 molecules, produce a descending ranking by Ki. List each label, following the requested order.
Response: B, A, C
(B: 25900 nM, A: 10600 nM, C: 92.7 nM)

a: O=C(O)[C@]1(Nc2cccc(Cl)c2)CC[C@@]2(CC1)c1ccccc1CC2CCCOc1cccc2c1CCN2 (some centres unmarked) [Example 470]
b: Cc1cc(C2Cc3ccccc3C23CCC(Nc2cccc(Br)c2)(C(=O)O)CC3)cs1 (centres unmarked) [Example 232]
Request: Which of the two items, a and b , has the greater recorded Ki? // return label of chosen record
Response: b
(b: 578 nM, a: 184 nM)

P: O=C(O)[C@]1(Nc2cccc(Cl)c2)CC[C@@]2(CC1)c1ccccc1CC2c1ccc(OCc2ccccc2)cc1 (single isomer, unassigned) [Example 352]
Q: Cn1cc(C2Cc3ccccc3[C@]23CC[C@](Nc2cccc(Br)c2)(C(=O)O)CC3)cn1 (some centres unmarked) [Example 213]
Request: # compare Ki for P vs Q ; return the one with the smaller value // respond with label for picked entry
Response: P

Value source: patent US20240150293A1
